# Test system: HCT-15 colon
# methodSummary: NCI tumour cell line growth inhibition, 48 h
measuredMetric: TGI

* C/C(=N\Nc1ccccc1Br)c1cccc(/C(C)=N/Nc2ccccc2Br)n1 | > 100 µM
* CCCCCCCCCCCCCCCC[N+](C)(C)CCN(Cc1ccc(OC)cc1)c1ncccn1 | 60.1 µM
* COc1ccc2cc1Oc1ccc(cc1)C[C@@H]1c3cc(c(OC)cc3CCN1C)Oc1c(OC)c(OC)cc3c1[C@@H](C2)N(C)CC3 | 30 µM
* Cc1ccc(NC(=O)c2cc3ccccc3c(N=Nc3ccccc3O)c2O)c(C)c1 | 11.1 µM
* COc1ccc(Cc2c(N)[nH]c(=O)n(C)c2=O)cc1 | > 100 µM
* O=C(Cc1ccccc1)NN1C(=O)C(Cl)C1c1ccc([N+](=O)[O-])cc1 (centres undefined) | > 100 µM
* COC(=O)[C@@H](O)[C@]1(C(=O)OC)C2O[C@@H](OC)[C@@H]1CCCCCC[C@H]2O | > 100 µM
* OCC1OC(Oc2cc(O)cc(/C=C/c3ccc(O)cc3)c2)C(O)C(O)C1O (centres undefined) | > 100 µM
* c1cc(CCN2CCCCC2)ccn1 | > 100 µM
* NC(=O)c1cc([N+](=O)[O-])c(Cl)c([N+](=O)[O-])c1 | 3.92 µM
* NC(=NC1CCCCCCC1)c1ccc(N2CCN(c3ccc(C(N)=NC4CCCCCCC4)cc3)CC2)cc1 | > 100 µM
* CS(=O)(=O)OCCn1cnc2nc(NC(=O)c3ccccc3)[nH]c(=O)c21 | > 100 µM
* CCOP(=O)(OCC)/C(C#N)=C/c1ccc(-c2ccc(F)cc2F)o1 | 28.7 µM
* Cc1ccccc1NC(=O)C(=O)CC(=O)c1sc(Nc2ccccc2[N+](=O)[O-])nc1C | > 100 µM
* CN=CN(C)c1c2ccccc2nc2ccccc12 | > 100 µM
* CC1CC2C(=O)N(c3ccccc3)C(=O)C2c2c1c1ccccc1n2Cc1ccccc1 (centres undefined) | > 100 µM
* CCCCCCCCCCCCCCCCCCNc1ccn(C2OC(CO)C(O)C2O)c(=O)n1 (centres undefined) | > 100 µM
* Cc1cc(C)nc(NC(=S)Nc2ccccc2Cl)c1 | > 100 µM
* O=Cc1cn(Cc2cccc(Cl)c2)c2ccccc12 | 25.2 µM
* Cc1cccc2c(=O)c3c(O)cc(O)cc3[nH]c12 | > 10 µM
* COc1ccc(C2=NN(C(=O)COc3ccc(Cl)cc3)C(O)(c3ccc(Cl)cc3)C2)cc1 (centres undefined) | > 100 µM
* C[C@]12CC[C@@H]3c4ccc(O)cc4CC[C@H]3[C@@H]1CC[C@@H]2NS(=O)(=O)c1cccc(C(F)(F)F)c1 | 5.23 µM
* O=C1c2cc3c(cc2CC12Cc1cc4c(cc1C2=O)CCC4)CCC3 | > 100 µM
* COc1cc2nc(-c3cccs3)nc(N3C(c4ccc(O)cc4)=NNC(=O)c4ccccc43)c2cc1OC | > 100 µM
